Data provenance: patent US7973072B2

Target: vanilloid receptor 1 (VR1/TRPV1) of the rat (Rattus norvegicus, UniProt O35433)
Sequence (O35433 whole entry): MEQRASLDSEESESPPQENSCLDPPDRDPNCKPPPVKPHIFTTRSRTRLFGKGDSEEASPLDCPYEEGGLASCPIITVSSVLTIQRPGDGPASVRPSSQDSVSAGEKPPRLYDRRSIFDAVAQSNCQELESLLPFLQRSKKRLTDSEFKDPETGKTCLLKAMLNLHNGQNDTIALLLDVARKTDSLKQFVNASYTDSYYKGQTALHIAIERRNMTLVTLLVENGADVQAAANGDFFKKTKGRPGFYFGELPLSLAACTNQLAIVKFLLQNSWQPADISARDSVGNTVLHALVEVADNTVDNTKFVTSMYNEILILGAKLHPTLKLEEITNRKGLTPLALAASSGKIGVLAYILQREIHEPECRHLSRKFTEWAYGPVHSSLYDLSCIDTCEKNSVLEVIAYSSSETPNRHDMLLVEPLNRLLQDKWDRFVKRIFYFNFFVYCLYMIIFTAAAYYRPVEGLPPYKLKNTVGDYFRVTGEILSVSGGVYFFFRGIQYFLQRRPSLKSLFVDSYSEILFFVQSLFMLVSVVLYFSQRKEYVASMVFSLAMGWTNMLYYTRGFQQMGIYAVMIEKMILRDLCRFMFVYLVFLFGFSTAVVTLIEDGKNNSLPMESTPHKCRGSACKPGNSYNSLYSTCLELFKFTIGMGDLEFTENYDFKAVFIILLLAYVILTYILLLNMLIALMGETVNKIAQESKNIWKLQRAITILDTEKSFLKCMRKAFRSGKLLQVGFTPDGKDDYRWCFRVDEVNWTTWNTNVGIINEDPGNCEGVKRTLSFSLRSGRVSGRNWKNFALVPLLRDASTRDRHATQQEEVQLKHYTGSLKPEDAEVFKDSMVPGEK
Assay: FLIPR Ca2+ functional study on rat vanilloid receptor 1 (rat dorsal root ganglia cells or CHO K1 cells transfected with rat VR1)
Details: FLIPR, antagonistic action
readout: pIC50
Formally, pIC50 is defined as -log10 of the concentration c, with c in mol/L.

Could you tell me which pIC50 is on file for CC(C)(C)c1ccc(NC(=O)OCC2(COC(=O)Nc3ccc(C(C)(C)C)cc3)CSc3ccccc3C2=O)cc1 ?
5.24

* * *

Biological target: UniProt:Q8NER1
Sequence (Q8NER1 whole entry): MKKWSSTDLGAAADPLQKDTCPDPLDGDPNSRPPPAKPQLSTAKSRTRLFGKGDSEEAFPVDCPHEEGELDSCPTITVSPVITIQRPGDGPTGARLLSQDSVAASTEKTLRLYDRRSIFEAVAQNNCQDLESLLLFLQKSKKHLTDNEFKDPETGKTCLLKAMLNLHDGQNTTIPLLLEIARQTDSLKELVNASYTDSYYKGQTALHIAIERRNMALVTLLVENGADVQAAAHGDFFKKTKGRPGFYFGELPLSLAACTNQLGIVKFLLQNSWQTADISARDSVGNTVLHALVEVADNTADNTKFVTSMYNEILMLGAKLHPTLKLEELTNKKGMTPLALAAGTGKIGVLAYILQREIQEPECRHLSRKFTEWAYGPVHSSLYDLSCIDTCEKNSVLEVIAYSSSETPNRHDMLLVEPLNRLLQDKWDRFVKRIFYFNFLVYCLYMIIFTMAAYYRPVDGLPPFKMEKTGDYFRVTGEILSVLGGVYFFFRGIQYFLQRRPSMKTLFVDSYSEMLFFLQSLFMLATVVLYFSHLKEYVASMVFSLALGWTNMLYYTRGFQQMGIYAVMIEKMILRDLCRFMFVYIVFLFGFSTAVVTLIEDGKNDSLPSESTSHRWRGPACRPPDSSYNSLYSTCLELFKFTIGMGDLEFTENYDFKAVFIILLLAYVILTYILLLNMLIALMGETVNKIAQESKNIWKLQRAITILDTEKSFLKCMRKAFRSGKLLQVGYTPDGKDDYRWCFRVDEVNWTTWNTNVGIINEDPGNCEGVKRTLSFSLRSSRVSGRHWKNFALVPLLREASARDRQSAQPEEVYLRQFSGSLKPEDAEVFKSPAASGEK
Test: FLIPR Ca2+ functional study on human vanilloid receptor 1 (CHO K1 cells transfected with human VR1)
Conditions: FLIPR, antagonistic action
pIC50: −log10 of the molar value.
readout: pIC50

Could you tell me which pIC50 is on file for CC(C)(C)c1ccc(NC(=O)OCC2(COC(=O)Nc3ccc(C(C)(C)C)cc3)CSc3ccccc3C2=O)cc1 ?
< 4.70
